# measurement target: HIV-1 protease (Human immunodeficiency virus type 1 group M subtype B)
# Construct: purified HIV-1 protease
# test description: biochemical
# Type: biochemical
# condition notes: 0.5M NaCl, 50 mM MES pH 5.6, 2% DMSO, 37° C., 200 μM substrate
test readout: Ki (nM)

| compound | uom | reported measurement |
| --- | --- | --- |
| CCC1(N(CCO)C(=O)c2ccccc2CCC(O)Cc2ccccc2C(=O)N(CCO)C(CC)(CC)c2ccccc2)CCCC1 (stereo not shown) [Example 95] | nM | 1.5 |

[1] CCC1(N(CCO)C(=O)c2ccccc2CCC(O)Cc2ccccc2C(=O)N(CCO)C2(c3ccccc3)CCCC2)CCCC1 (stereo not shown) [Example 93]
[2] CCC1(N(CCO)C(=O)c2ccccc2CCC(O)Cc2ccc(Cl)cc2C(=O)N(CCO)C(C)(C)c2ccccc2)CCCC1 (stereo not shown) [Example 105]
query: Which entry shows the lesser value of Ki here, 1 or 2 ? Answer by quoting the chosen item's label.
result: 2
(2: 1 nM, 1: 2.3 nM)

[P] CC(C)(C)NC(=O)c1cc(C(C)(C)C)ccc1CCC(O)Cc1ccc2ccccc2c1C(=O)NC(C)(C)C (stereo not shown) [Example 7]
[Q] CC(C)(c1ccccc1)N(CCO)C(=O)c1ccccc1CCC(O)Cc1ccccc1C(=O)N(CCO)C(C)(C)c1ccccc1 (stereo not shown) [Example 65]
[R] CC(C)(C)N(CCO)C(=O)c1ccccc1CCC(O)C(F)(F)c1ccccc1C(=O)N(CCO)C(C)(C)c1ccccc1 (stereo not shown) [Example 79]
query: Ordering criterion: Ki; begin with the maximum. # answer = labels listed in requested order
result: R, P, Q
(R: 3200 nM, P: 1010 nM, Q: 31 nM)

====

Recorded measurements of IC50, one per entry
# System: HIV-1 (MT-2 cells)
# test description: Anti-HIV MTT assay, inhibition of HIV-induced cell killing, MT-2 cells
# Assay type: cell-based, HIV-1 isolates IIIB and/or RF
# condition notes: Human immunodeficiency virus 1, MT2, 144 h; MT-2 cells (second position), 6 days, 37° C., MTT; read-out: Viral MT-2
State just the number; it will be interpreted in µg/mL.

As a guide, the following entries are already answered.
| compound | measurement target | IC50 (µg/mL) |
| --- | --- | --- |
| CCC1(N(CCO)C(=O)c2ccccc2CCC(O)Cc2ccccc2C(=O)N(CCO)C(C)(C)c2ccccc2)CCCC1 (stereo not drawn) [Example 82] | HIV-1 (MT-2 cells) | 0.64 |
| CCC1(N(CCO)C(=O)c2ccccc2CCC(O)Cc2ccc(C)cc2C(=O)N(CCO)C(C)(C)c2ccc(OCCN3CCOCC3)cc2)CCCC1 (stereo not drawn) [Example 108] | HIV-1 (MT-2 cells) | 0.56 |

In the following, a different compound is considered.
query: Answer with the recorded IC50 of CCSc1ccc(CC(O)CCc2ccccc2C(=O)N(CCO)C2(CC)CCCC2)c(C(=O)N(CCO)C(C)(C)c2ccccc2)c1 (stereo not drawn) [Example 99] only.
result: 5.75

====

# measurement target: HIV-1 protease (Human immunodeficiency virus type 1 group M subtype B)
# Construct: purified HIV-1 protease
# test description: biochemical
# Assay type: biochemical
# condition notes: 0.5M NaCl, 50 mM MES pH 5.6, 2% DMSO, 37° C., 200 μM substrate
# Method: 1. Proteolytic activity of purified HIV-1 protease was routinely measured using the chromogenic assay developed by Richards et al. (J. Biol. Chem. 265: 7733 (1990)). […] 2. […] Cleavage of the scissile bond between leucine and paranitro-phenylalanine (Phe(pNO2)) was assayed by spectrophotometric monitoring of the decrease in absorbance at 305 nm. Initial velocity was determined as the rate of decline of absorbance during the first 100 seconds of reaction. […]
test readout: IC50 (µM)

[a] CN(C(=O)c1ccccc1CCC(O)Cc1ccccc1C(=O)N(C)C(C)(C)C)C(C)(C)C (stereo not drawn) [Example 55]
[b] CCC1(N(CCO)C(=O)c2ccccc2CCC(O)Cc2ccccc2C(=O)N(CCO)C(CC)(CC)c2ccccc2)CCCC1 (stereo not drawn) [Example 95]
[c] CC(C)(C)N(CCO)C(=O)c1c(CCC(O)Cc2ccc3ccccc3c2C(=O)N(CCO)C(C)(C)C)ccc2ccccc12 (stereo not drawn) [Example 6]
query: Put the compounds in ascending order of IC50. Reply with the labels, ordered as the question asks.
result: b, a, c
(b: 0.09 µM, a: 6.3 µM, c: 30 µM)
